- Tested on: A375 (malignant melanoma) cell line
- experimental.details: CellTiter-Glo luminescent cell viability assay, A375
- Format: cell-based, human
- reported.conditions: Homo sapiens, A-375; A375 cell line; 72 h incubation; CellTiter-Glo; read-out: EC50, growth inhibition of A375
pEC50: −log10 of the molar value. Structures can show the parent of a compound that is named as a salt.
outcome.measure: pEC50

Illustrative cases are given below, each with its answer.
>  <compound>
CC(C)OC1CCN(c2cc(NCc3ccc(Cl)cc3)nc3ccccc23)CC1 [Compound 2918, hydrochloride]

>  <pEC50>
5.00 to 5.30

$$$$
>  <compound>
Cc1cc(C)nc(Nc2ccc(Nc3nc4ccccc4c(N4CCC(NC(C)(C)C)CC4)c3C#N)cc2)n1 [Compound 3276CN]

>  <pEC50>
5.30 to 6.30

$$$$
>  <compound>
O[C@H]1CCN(c2cc(NCc3ccc(Cl)cc3)nc3ccccc23)C1 [Compound 3060, hydrochloride]

>  <pEC50>
5.30 to 6.30

$$$$

Q) State its pEC50 for this compound: CCN(CC)C1CCN(c2c(C#N)c(NCc3ccc(Cl)cc3)nc3ccccc23)CC1 [Compound 184CN]
A) 5.30 to 6.30

Q) State its pEC50 for this compound: Cc1ccnc(Nc2ccc(Nc3nc4ccccc4c(N4CCC(NC(C)(C)C)CC4)c3C#N)cc2)n1 [Compound 532CN]
A) 5.30 to 6.30

Q) State its pEC50 for this compound: Clc1ccc(CNc2cc(N3CCC(Oc4ccccc4)CC3)c3ccccc3n2)cc1 [Compound 2940, hydrochloride]
A) 5.00 to 5.30

Q) State its pEC50 for this compound: Cc1cccc(OC2CCN(c3cc(NCc4ccc(Cl)cc4)nc4ccccc34)CC2)c1 [Compound 2946, hydrochloride]
A) 5.30 to 6.30

Q) State its pEC50 for this compound: CC(C)(C)NC1CCN(c2c(C#N)c(Nc3cccc(Nc4nccc(C(F)(F)F)n4)c3)nc3ccccc23)CC1 [Compound 540CN]
A) 5.30 to 6.30

Q) State its pEC50 for this compound: Clc1ccc(CNc2cc(N3CC[C@@H](Oc4ccccn4)C3)c3ccccc3n2)cc1 [Compound 3026, hydrochloride]
A) 5.30 to 6.30

Q) State its pEC50 for this compound: CC(C)(C)NC1CCN(c2c(C#N)c(Nc3ccc(Cl)cc3)nc3ccccc23)CC1 [Compound 3258CN]
A) 5.30 to 6.30

====

- Tested on: HCT-116 (colorectal carcinoma) cell line
- experimental.details: CellTiter-Glo luminescent cell viability assay, HCT-116
- Assay type: cell-based, human
- reported.conditions: Homo sapiens; HCT-116, compound at 10 μM, 72 h
Here, each record is paired with measured viability at 10 µM data.
Your answer is read as %, so omit the unit and give the number.

Illustrative cases are given below, each with its answer.
>  <molecule>
N#Cc1c(NCc2ccc(Cl)cc2)nc2ccccc2c1N1CCC(NC2CCCC2)C1 (centres unmarked) [Compound 134CN]

>  <outcome.measure>
viability at 10 µM

>  <assay.result>
50.6

$$$$
>  <molecule>
N#Cc1c(NCc2ccc(Cl)cc2)nc2ccccc2c1N1CCC(Oc2ccc(F)cc2)C1 (centres unmarked) [Compound 3338CN]

>  <outcome.measure>
viability at 10 µM

>  <assay.result>
87.6

$$$$

// moving on: another record for viability at 10 µM
Q) State its viability at 10 µM for this molecule: Cc1nnc(Nc2nc3ccccc3c(N3CCC(NC(C)(C)C)CC3)c2C#N)o1 [Compound 3272CN]
A) 5
